The reported measurements were obtained from patent US20030199671A1.

TGT: T1, Human IgG Fc fragment isolated from plasma (human)
T1 construct: domain: Fc fragment; also called human Fc; Fc protein
PROCEDURE TEXT: fluorescence anisotropy; pH 8.0, 0.05 M Tris-HCl, 0.2 M NaCl
Positions of bridges follow the written chain, without caps; N, C: chain ends.
Form field: pKd (one value per entry).
In plain terms, pKd is the concentration in mol/L turned into minus its base-10 logarithm.

Here are 2 binders together with their reported answers.
# BINDER, MEAS VALUE
measured = [
    ("Ac-AGYYWCNYWGLCPDQGTPGPEGGGK-NH2 (not fully specified (bridges); printed as Ac-AGYYWCNYWGLCPDQGTPGPEGGGK-NH2; cysteine pairing not given here; also: fluorescein-labelled form in anisotropy assays, place not given here, Fluorescein-labelled in anisotropy assays; immobilised in batch assays) [DX254]", 5.80),
    ("Ac-GDDHMCVYTTWGELIWCDNHEPGPEGGGK-NH2 (disulfide 6-17 (inferred), Synthetic disulfide-cyclised peptide) [DX249]", 5.60),
]

Read the next record carefully.
**Query** Consider the binder shown here: Ac-GDDDHCYWFREWFNSECPHGEPGPEGGGK-NH2 (not fully specified (bridges); printed as Ac-GDDDHCYWFREWFNSECPHGEPGPEGGGK-NH2; cysteine pairing not given here; also: fluorescein-labelled form in anisotropy assays, place not given here, Fluorescein-labelled in anisotropy assays; immobilised in batch/column assays) [DX252] What is its recorded pKd?
**Result** 5.29
